Target: T1, hK1 (human tissue kallikrein 1), recombinant (human, UniProt P06870 25-262)
T1 construct: Expressed in P. pastoris from KLK1 cDNA and purified; enzymatically active; also called KLK1; Recombinant (Pichia) Kallikrein
Assay: SPR
measurementKind: kon (M⁻¹ s⁻¹)
// units = M⁻¹ s⁻¹; emit number, no label

- binder: "M0103-F07 (Fab, V domains shown) VH: EVQLLESGGGLVQPGGSLRLSCAASGFTFSLYAMHWVRQAPGKGLEWVSSIRPSGGLTKYADSVKGRFTISRDNSKNTLYLQMNSLRAEDTAVYYCARVGVWYGMDVWGQGTTVTVSS VL: AQSALTQPASVSGSPGQSITISCTGTSNDIGRTNYVSWYRQDPGRAPKLILFEVSNRPSGISNRFSASKSGSTASLTISGLQADDESDYYCSSCTTAPVCVFGNGTRVTVLG"
  unitString: "M⁻¹ s⁻¹"
  kon: 564000

Entry M0124-H10 (Fab, V domains shown) VH: EVQLLESGGGLVQPGGSLRLSCAASGFTFSNYFMNWVRQAPGKGLEWVSSIGSSGGYTRYADSVKGRFTISRDNSKNTLYLQMNSLRAEDTAVYYCARVGVWYGMDVWGQGTTVTVSS VL: DIQMTQSPATLSLSAGERATLSCRASQSVNIDVGWYQQKPGQAPRLLIYDASKRATGIPTRFSGSGSGTDFTLTIANLEPEDFAVYYCQQRARWLTFGGGTRLEIKR , kon reported as 59100

Entry M0112-D04 (Fab, V domains shown) VH: EVQLLESGGGLVQPGGSLRLSCAASGFTFSHYVMVWVRQAPGKGLEWVSGIRSSGGVTAYADSVKGRFTISRDNSKNTLYLQMNSLRAEDTAMYYCARVGVWYGMDVWGQGTTVTVSS VL: AQSALTQPLSVSVALGQTARITCGGNNIGSKNVHWYQQKPGQAPVLVIYRDSNRPSGIPERFSGSNSGNTATLTISGAQAGDEADYYCQVWDSSTVFGGGTKLTVLG , kon reported as 176000
